Cited source for all entries: patent US20250326840A1

target-desc: T1, QP098 (cyno SIRPα (I7G9Z7) ECD(E31-R369)-flag-his) (cynomolgus)
T1 construct: the construct carries flag and his tags; also called cynoSIRPα (ECD); cynomolgus SIRPα
T1 chain: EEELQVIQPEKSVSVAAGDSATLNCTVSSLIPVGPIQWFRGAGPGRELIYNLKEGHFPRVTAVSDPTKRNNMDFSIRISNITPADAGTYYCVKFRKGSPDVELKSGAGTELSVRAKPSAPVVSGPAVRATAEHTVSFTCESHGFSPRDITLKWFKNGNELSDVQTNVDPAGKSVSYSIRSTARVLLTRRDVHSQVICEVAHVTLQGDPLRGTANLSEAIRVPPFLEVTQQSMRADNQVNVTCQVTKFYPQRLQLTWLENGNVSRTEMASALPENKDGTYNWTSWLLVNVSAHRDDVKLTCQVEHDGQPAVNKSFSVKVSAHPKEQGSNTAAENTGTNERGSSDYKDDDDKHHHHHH
assay-comment: SPR, Biacore

binder: QP2561586 (antibody, human IgG4, V domains shown, Human IgG4 heavy constant region and kappa CL) VH: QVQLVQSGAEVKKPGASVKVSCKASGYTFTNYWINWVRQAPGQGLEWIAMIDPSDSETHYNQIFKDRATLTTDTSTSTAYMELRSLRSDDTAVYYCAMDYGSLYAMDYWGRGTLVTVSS VL: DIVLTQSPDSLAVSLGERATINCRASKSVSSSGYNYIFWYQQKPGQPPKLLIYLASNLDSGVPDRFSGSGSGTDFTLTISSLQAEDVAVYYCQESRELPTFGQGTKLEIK
Kd / nM: 4.22
//
binder: QP256253 (antibody, human IgG4, V domains shown, also called humanized antibody QP256253; QP163164 humanized clone) VH: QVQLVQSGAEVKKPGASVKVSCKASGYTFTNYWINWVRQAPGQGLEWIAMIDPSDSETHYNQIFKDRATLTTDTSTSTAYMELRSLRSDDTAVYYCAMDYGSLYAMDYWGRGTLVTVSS VL: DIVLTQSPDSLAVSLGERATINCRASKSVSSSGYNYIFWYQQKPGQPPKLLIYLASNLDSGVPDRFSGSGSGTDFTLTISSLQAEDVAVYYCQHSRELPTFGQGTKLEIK
Kd / nM: 26.8
//
binder: QP256279 (antibody, human IgG4, V domains shown, Human IgG4 heavy constant region and kappa CL) VH: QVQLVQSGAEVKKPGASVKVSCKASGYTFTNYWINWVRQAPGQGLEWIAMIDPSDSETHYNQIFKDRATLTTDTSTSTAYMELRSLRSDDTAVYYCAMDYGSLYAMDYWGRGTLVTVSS VL: DIVLTQSPDSLAVSLGERATINCRASQSVRSSGYNWIFWYQQKPGQPPKLLIYLASNRDSGVPDRFSGSGSGTDFTLTISSLQAEDVAVYYCQHSRELPTFGQGTKLEIK
Kd / nM: 1.56
//
binder: QP2561589 (antibody, human IgG4, V domains shown, Human IgG4 heavy constant region and kappa CL) VH: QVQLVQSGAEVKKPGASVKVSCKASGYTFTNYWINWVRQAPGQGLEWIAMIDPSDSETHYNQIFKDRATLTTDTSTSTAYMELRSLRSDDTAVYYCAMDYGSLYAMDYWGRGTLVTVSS VL: DIVLTQSPDSLAVSLGERATINCRASKSVSSSGYNYIFWYQQKPGQPPKLLIYLASNLDSGVPDRFSGSGSGTDFTLTISSLQAEDVAVYYCQESWELPTFGQGTKLEIK
Kd / nM: 6.03
